Assign IC50 to each entry below.
tested_on: Cyclin-dependent kinase 5/CDK5 activator 1 (Homo sapiens)
Sequence (Q00535 whole entry): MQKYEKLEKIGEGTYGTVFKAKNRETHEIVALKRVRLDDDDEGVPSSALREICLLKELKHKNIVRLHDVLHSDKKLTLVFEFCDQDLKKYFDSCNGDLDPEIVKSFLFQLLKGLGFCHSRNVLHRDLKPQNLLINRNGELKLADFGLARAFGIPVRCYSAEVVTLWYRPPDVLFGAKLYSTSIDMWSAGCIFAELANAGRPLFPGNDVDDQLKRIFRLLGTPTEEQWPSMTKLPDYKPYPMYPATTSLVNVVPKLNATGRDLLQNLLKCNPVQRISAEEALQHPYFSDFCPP
Sequence (Q15078 whole entry, further chain): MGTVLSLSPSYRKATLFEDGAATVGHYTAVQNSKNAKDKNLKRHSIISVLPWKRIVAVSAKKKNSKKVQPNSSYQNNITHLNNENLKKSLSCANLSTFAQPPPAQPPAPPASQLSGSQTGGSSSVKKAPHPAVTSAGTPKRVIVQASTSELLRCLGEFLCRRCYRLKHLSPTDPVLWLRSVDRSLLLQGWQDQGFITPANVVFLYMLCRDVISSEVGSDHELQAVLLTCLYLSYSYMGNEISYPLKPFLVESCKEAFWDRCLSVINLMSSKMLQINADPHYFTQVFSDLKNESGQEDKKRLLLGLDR
measurement_notes: Inhibition of CDK5/p25 (unknown origin)-mediated incorporation of gamma33P into substrate after 20 mins by scintillation counting analysis in presence of 33P-ATP
Type: protein-complex assay
Numbers only, in µM.

# compound, IC50 (µM)
rows = [
    ("O=C1/C(=C/c2ccc(O)c(O)c2)Oc2cc(O[C@@H]3O[C@H](CO)[C@@H](O)[C@H](O)[C@H]3O)cc(O)c21", 24.3),
]

Then there is this compound:
Exam item: What measured IC50 goes with O=C1/C(=C/c2ccc(O)c(O)c2)Oc2cc(O)cc(O)c21 [AUREUSIDIN] ?
Marked response: 4.81
